Test system: PC-3 prostate
Test: NCI tumour cell line growth inhibition, 48 h
MEASURED ENDPOINT: TGI (µM)

COMPOUND	ASSAYED SYSTEM	MEASURED ENDPOINT	COMPARISON SIGN	VALUE OBSERVED
NC(=O)c1nnc2cc(F)ccc2c1N	PC-3 prostate	TGI	>	100
O=[N+]([O-])/C(C(Cl)=C(Cl)Cl)=C1\NCCO1	PC-3 prostate	TGI	>	100
COC(=O)/C=C(\C)C(=O)N(C)c1ccccc1I	PC-3 prostate	TGI	>	100
COc1cccc(-c2ccc3c4c2O[C@H]2c5[nH]c6ccccc6c5C[C@@]5(O)[C@@H](C3)N(CC3CC3)CC[C@]425)c1	PC-3 prostate	TGI	=	2.48
COc1cc2c3c(n(CCCNCCN)c(=O)c2cc1OC)-c1cc2c(cc1C3=O)OCO2	PC-3 prostate	TGI	=	14.9
Cc1ccc(N=Nc2c(O)ccc3cc(S(=O)(=O)O)ccc23)c(C)c1	PC-3 prostate	TGI	>	100
CC(C)CCC[C@@H](C)[C@H]1CCC2C3CC=C4C[C@@H](Oc5c6ccccc6nc6ccccc56)CCC4C3CCC21 (stereo partly specified)	PC-3 prostate	TGI	>	50
CC/C=C\C[C@H](O)C/C=C1/C(=O)C=C[C@@H]1C/C=C\CCCC(=O)N(C)C	PC-3 prostate	TGI	=	4.47
COC1CC2C=C(C)/C=C/C=C/C(=O)NC(c3ccccc3)C/C=C/CCC(O)CC(=O)C2=C1O (stereo unspecified)	PC-3 prostate	TGI	=	1.16
CC12CCC(C(=O)O1)C(C)(C)O2 (stereo unspecified)	PC-3 prostate	TGI	>	100
CC1(C)[C@@H](Cn2cnc3c(N)ncnc32)CC[C@@]1(C)CO	PC-3 prostate	TGI	>	100
CCCCCCCCCCCCCCCCCCNc1ccn(C2OC(COP(=O)(O)OCC3CCC(n4cnc5c(=O)[nH]cnc54)O3)C(O)C2O)c(=O)n1 (stereo unspecified)	PC-3 prostate	TGI	=	47.6
O=C1C=C(Br)C(=O)C12CCc1ccccc12 (stereo unspecified)	PC-3 prostate	TGI	=	32.5
N#Cc1cnc2cc(OC[C@@H](O)CO)c(NC(=O)CC3CSSC3)cc2c1Nc1ccc(OCc2cccc(F)c2)c(Cl)c1	PC-3 prostate	TGI	=	0.198
Cc1ccsc1/C=N/Nc1cc(C)c2cccc(C)c2n1	PC-3 prostate	TGI	>	100
N#Cc1c(-c2ccccc2)cc(-c2ccc(Nc3nc(Nc4ccc(Cl)cc4)nc(Nc4ccc(Cl)cc4)n3)cc2)nc1N	PC-3 prostate	TGI	=	6.76
CC(C)SC(C)(NC(=O)C1C(C)(C)CCC1(C)C)C(=O)O (stereo unspecified)	PC-3 prostate	TGI	>	100
COC(=O)C(CCc1ccccc1I)C1=CCC2(CC1)OCCO2 (stereo unspecified)	PC-3 prostate	TGI	>	100
COc1cc(OC)c(OC)cc1/C=C\c1nccc2ccccc12	PC-3 prostate	TGI	=	60.2
COC(=O)C(C)(N=Cc1ccccc1)c1ccccc1 (stereo unspecified)	PC-3 prostate	TGI	>	100
CCC1C(c2cccc(OC)c2O)c2cc3c(cc2OC1N1CCCC1)OCO3 (stereo unspecified)	PC-3 prostate	TGI	=	89.2
